Each recorded value in this set is attributed to paper PMC9460261.

System: SARS-CoV-2 in A549-Dual hACE2-TMPRSS2 cells
Conditions: read-out: A549-Dual hACE2-TMPRSS2 cells Average EC50
measured.property: EC50 (nM)
Hi! Could you send only the number? It should be in nM, unit omitted.

Using the record for `O=c1nc(NO)ccn1[C@@H]1O[C@H](CO)[C@@H](O)[C@H]1O` , state its measured EC50.
470
